# Target entity: CYP2C9 (Homo sapiens, UniProt P11712)
# Sequence (P11712 whole entry): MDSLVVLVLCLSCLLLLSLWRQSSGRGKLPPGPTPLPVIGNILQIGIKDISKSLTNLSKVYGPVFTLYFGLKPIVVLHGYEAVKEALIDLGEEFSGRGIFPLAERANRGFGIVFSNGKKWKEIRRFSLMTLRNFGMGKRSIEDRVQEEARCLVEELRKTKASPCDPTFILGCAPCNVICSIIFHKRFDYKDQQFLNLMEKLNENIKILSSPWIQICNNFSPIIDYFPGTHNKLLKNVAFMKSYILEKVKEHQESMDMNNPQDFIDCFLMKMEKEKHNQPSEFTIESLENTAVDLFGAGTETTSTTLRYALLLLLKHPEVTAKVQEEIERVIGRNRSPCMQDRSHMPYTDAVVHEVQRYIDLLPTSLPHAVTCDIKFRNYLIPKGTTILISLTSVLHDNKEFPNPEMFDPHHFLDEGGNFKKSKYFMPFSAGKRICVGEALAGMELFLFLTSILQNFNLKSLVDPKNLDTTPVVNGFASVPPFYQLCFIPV
# Method summary: In Vitro Metabolism (isozymes of P450) CYP2C9
Measurement kind: CYP2C9 (% inhibition)

Answered cases to consult:
[
  {
    "Compound": "O=C1CCC2(CCN(Cc3nc4ccccc4[nH]3)CC2)Nc2ccccc21 [Compound 21]",
    "Target entity": "CYP2C9 (Homo sapiens, UniProt P11712)",
    "Reported value": 19
  },
  {
    "Compound": "O[C@H]1CCC2(CCN(Cc3ccc(F)cc3)CC2)Nc2ccccc21 [Compound 49]",
    "Target entity": "CYP2C9 (Homo sapiens, UniProt P11712)",
    "Reported value": 18
  }
]

[I] O[C@@H]1CCC2(CCN(Cc3ccc(F)cc3)CC2)Nc2ccccc21 [Compound 50]
[II] OC1CCC2(CCN(Cc3ccc(F)cc3)CC2)Nc2ccccc21 (racemic) [Compound 32]
Compare I and II by numeric CYP2C9 and name the larger one. Your answer should be the label of the entry you select. I
(I: 19 % inhibition, II: 11 % inhibition)
